STUDY_SYSTEM: T1, hNPR1-ANP complex (human, UniProt P01160 124-151, limits assumed)
T1 construct: hNPR1 antigen in the presence of ANP; also called hNPR1 + 100 nM ANP
T1 sequence: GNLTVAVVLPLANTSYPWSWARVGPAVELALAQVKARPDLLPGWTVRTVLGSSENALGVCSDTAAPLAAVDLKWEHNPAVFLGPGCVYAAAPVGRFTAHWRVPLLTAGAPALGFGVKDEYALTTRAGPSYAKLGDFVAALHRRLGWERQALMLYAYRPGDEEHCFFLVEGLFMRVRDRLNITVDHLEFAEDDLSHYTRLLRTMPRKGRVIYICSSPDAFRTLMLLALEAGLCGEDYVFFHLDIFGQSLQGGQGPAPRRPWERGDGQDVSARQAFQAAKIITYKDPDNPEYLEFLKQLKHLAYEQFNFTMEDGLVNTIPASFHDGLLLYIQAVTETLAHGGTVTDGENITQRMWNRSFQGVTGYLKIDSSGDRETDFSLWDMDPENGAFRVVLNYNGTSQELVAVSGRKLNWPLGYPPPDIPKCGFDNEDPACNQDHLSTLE
T1 sequence (peptide): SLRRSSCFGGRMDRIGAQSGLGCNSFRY
TEST_PROTOCOL: ELISA, 1 µM IgG
Design: unit not given here
READOUT_KIND: ELISA binding at 1 µM IgG

Problem: Reported ELISA binding at 1 µM IgG, binder YY01 (IgG format) (antibody, V domains shown, also called YY01_LALA) VH: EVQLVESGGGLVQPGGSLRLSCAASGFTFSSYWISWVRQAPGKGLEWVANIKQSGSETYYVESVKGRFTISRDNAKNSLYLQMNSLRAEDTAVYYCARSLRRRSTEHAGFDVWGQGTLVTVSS VL: DIQMTQSPSSLSASVGDRVTITCRASQGISNYLAWYQQKPGKVPKLLIYAASTLQSGVPSRFSGSGSGTDFTLTISSLQPEDVATYYCQQADKFPYTFGQGTKVEIKR : ____
Result: 76
